# protocol_details: Inhibition of Plasmodium falciparum falcipain-2 after 12 hrs by fluorescence spectroscopy-based on-bead assay
# Parameters: concentration or dose not given beside the values
# recorded_conditions: concentration not given here
Square brackets hold non-standard residues; d marks the D form. Peptide text beside a SMILES is read from it. * marks the point of attachment. Fumaroyl(GlyGlyPheOH) = O=C(/C=C/C(=O)*)NCC(=O)NCC(=O)N[C@@H](Cc1ccccc1)C(=O)O; Chg = N[C@H](C(=O)O)C1CCCCC1; Dap = NC[C@H](N)C(=O)O
Let's look at some compounds and their measured inhibition.

[
  {
    "compound": "CC(=O)NC[C@H](NC(=O)/C=C/C(=O)NCC(=O)NCC(=O)N[C@@H](Cc1ccccc1)C(=O)O)C(=O)N[C@H](C(=O)N[C@@H](C)C(=O)N[C@H](C(N)=O)C(C)C)C1CCCCC1 ({Fumaroyl(GlyGlyPheOH)}-[Dap](Ac)[Chg]AV-NH2)",
    "unit_text": "%",
    "inhibition": 23
  },
  {
    "compound": "CC(C)C[C@H](NC(=O)[C@@H](NC(=O)[C@H](Cc1ccccc1)NC(=O)/C=C/C(=O)NCC(=O)NCC(=O)N[C@@H](Cc1ccccc1)C(=O)O)c1ccccc1)C(=O)N[C@H](C(N)=O)C(C)C (HELM PEPTIDE1{[O=C(/C=C/C(=O)[*:2])NCC(=O)NCC(=O)N[C@@H](Cc1ccccc1)C(=O)O].F.[Phg].L.V.[am]}$$$$V2.0)",
    "unit_text": "%",
    "inhibition": 40
  },
  {
    "compound": "CC(C)[C@H](NC(=O)[C@@H](NC(=O)[C@@H](NC(=O)[C@H](C)NC(=O)/C=C/C(=O)NCC(=O)NCC(=O)N[C@@H](Cc1ccccc1)C(=O)O)c1ccccc1)C(C)C)C(N)=O (HELM PEPTIDE1{[O=C(/C=C/C(=O)[*:2])NCC(=O)NCC(=O)N[C@@H](Cc1ccccc1)C(=O)O].A.[Phg].V.V.[am]}$$$$V2.0)",
    "unit_text": "%",
    "inhibition": 56
  },
  {
    "compound": "CC(C)[C@H](NC(=O)[C@@H](NC(=O)[C@@H](NC(=O)[C@H](CC(N)=O)NC(=O)/C=C/C(=O)N[C@@H](C)C(=O)NCC(=O)N[C@@H](Cc1ccccc1)C(=O)O)C1CCCCC1)C(C)C)C(N)=O (HELM PEPTIDE1{[C[C@H](NC(=O)/C=C/C(=O)[*:2])C(=O)NCC(=O)N[C@@H](Cc1ccccc1)C(=O)O].N.[O=C([C@@H](N[*:1])C1CCCCC1)[*:2]].V.V.[am]}$$$$V2.0)",
    "unit_text": "%",
    "inhibition": 62
  },
  {
    "compound": "CC[C@H](C)[C@H](NC(=O)[C@H](CNC(C)=O)NC(=O)/C=C/C(=O)N[C@@H](C)C(=O)NCC(=O)N[C@@H](Cc1ccccc1)C(=O)O)C(=O)N[C@H](C(=O)N[C@H](C(N)=O)C(C)C)C(C)C (HELM PEPTIDE1{[C[C@H](NC(=O)/C=C/C(=O)[*:2])C(=O)NCC(=O)N[C@@H](Cc1ccccc1)C(=O)O].[O=C([C@H](CN[*:3])N[*:1])[*:2]].I.V.V.[am]}|PEPTIDE2{[ac]}$PEPTIDE1,PEPTIDE2,2:R3-1:R2$$$V2.0)",
    "unit_text": "%",
    "inhibition": 52
  },
  {
    "compound": "CC(C)[C@H](NC(=O)[C@@H](NC(=O)[C@@H](NC(=O)[C@H](C)NC(=O)/C=C/C(=O)N[C@@H](C)C(=O)NCC(=O)N[C@@H](Cc1ccccc1)C(=O)O)c1ccccc1)C(C)C)C(N)=O (HELM PEPTIDE1{[C[C@H](NC(=O)/C=C/C(=O)[*:2])C(=O)NCC(=O)N[C@@H](Cc1ccccc1)C(=O)O].A.[Phg].V.V.[am]}$$$$V2.0)",
    "unit_text": "%",
    "inhibition": 38
  }
]
